- System: MCF-7 (breast adenocarcinoma)
- Protocol summary: MTT assay, MCF-7
- Assay type: cell-based
- Setup conditions: Homo sapiens, MCF7, 48 h incubation, read-out: IC50 [µM] ± SD MCF-7
Quantity measured: IC50 (µM)
Give the number; µM is assumed, so skip it.

Give the measured IC50 of Cc1cc(C)c(C(=O)NCc2nn(CC(=O)NN=Cc3cccc(Cl)c3)c(=S)o2)c(S)n1 [Compound 12] .
9.04

For the compound shown here, Cc1cc(C)c(C(=O)NCc2nn(CC(=O)NN=Cc3ccc(C#N)cc3)c(=S)o2)c(S)n1 [Compound 9] , give the reported IC50.
8.22

Query (compound): Cc1cc(C)c(C(=O)NCc2nn(CC(=O)NN=Cc3ccc(C(F)(F)F)cc3)c(=S)o2)c(S)n1 [Compound 11] ; field requested: IC50
8.29

Please give the measured IC50 for this compound: Cc1cc(C)c(C(=O)NCc2nn(CC(=O)NN=Cc3ccccc3)c(=S)o2)c(S)n1 [Compound 5]
6.37

Tell me the measured IC50 of Cc1ccc(C=NNC(=O)Cn2nc(CNC(=O)c3c(C)cc(C)nc3S)oc2=S)cc1 [Compound 7] , please.
6.33

Field request: IC50 | item: Cc1cc(C)c(C(=O)NCc2nn(CC(=O)NN=Cc3ccccc3Br)c(=S)o2)c(S)n1 [Compound 13]
7.23

# query: IC50 of entry Cc1cc(C)c(C(=O)NCc2nn(CC(=O)NN)c(=S)o2)c(S)n1 [Compound 4]
9.63

Recorded IC50 of CSc1ccc(/C=N\NC(=O)Cn2nc(CNC(=O)c3c(C)cc(C)nc3S)oc2=S)cc1 [Compound 8] , please.
9.41

I'd like to know its IC50. The compound in question is Cc1cc(C)c(C(=O)NCc2nn(CC(=O)NN=Cc3ccc(F)cc3)c(=S)o2)c(S)n1 [Compound 6]
6.37

GET /values?readout=IC50&item= Cc1cc(C)c(C(=O)NCc2nn(CC(=O)NN=Cc3ccc(Cl)cc3)c(=S)o2)c(S)n1 [Compound 10]
6.19

* * *

For each of the compounds below, state its IC50.
- Measured target: COX-1 (Ovis aries)
- Construct: purchased Cayman Chemical Company, Ann Arbor, MI, USA
- Sequence (P05979 25-600): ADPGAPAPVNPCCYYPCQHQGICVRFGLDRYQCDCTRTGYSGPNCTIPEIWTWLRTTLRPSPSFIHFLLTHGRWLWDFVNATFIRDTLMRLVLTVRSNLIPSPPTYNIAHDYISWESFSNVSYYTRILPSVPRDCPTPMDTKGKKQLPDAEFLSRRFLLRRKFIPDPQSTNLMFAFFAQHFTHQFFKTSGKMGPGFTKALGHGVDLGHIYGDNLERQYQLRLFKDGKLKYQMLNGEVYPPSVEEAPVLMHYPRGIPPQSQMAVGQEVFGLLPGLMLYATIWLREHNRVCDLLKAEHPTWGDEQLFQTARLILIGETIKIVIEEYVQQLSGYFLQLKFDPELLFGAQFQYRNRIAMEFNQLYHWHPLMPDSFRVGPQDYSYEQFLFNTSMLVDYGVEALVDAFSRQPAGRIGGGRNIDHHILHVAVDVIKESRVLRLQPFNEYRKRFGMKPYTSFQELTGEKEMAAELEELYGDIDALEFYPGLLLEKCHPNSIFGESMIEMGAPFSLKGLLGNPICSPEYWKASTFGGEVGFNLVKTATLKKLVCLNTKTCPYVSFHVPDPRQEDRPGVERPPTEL
- Protocol summary: COX colorimetric inhibitor screening assay, COX-1
- Type: biochemical
- Setup conditions: after 2 min of incubation, n = 5; read-out: IC50 [µM] ± SD COX-1
Give the number; µM is assumed, so skip it.

Query: IC50; subject: "Cc1cc(C)c(C(=O)NCc2nn(CC(=O)NN=Cc3ccccc3Br)c(=S)o2)c(S)n1"
84.4

GET /values?readout=IC50&item= "CSc1ccc(/C=N\NC(=O)Cn2nc(CNC(=O)c3c(C)cc(C)nc3S)oc2=S)cc1"
157

# input compound: "Cc1cc(C)c(C(=O)NCc2nn(CC(=O)NN)c(=S)o2)c(S)n1" ; wanted: its IC50
135

Need IC50, item "Cc1cc(C)c(C(=O)NCc2nn(CC(=O)NN=Cc3ccc(C#N)cc3)c(=S)o2)c(S)n1"
154

Quick one: IC50 of "Cc1cc(C)c(C(=O)NCc2nn(CC(=O)NN=Cc3ccccc3)c(=S)o2)c(S)n1" ?
73.9

* * *

Field: activity at 100 µM. Provide a value for each of the compounds that follow.
- Tested on: LoVo cell line
- Protocol summary: Intracellular ROS level (DCFH-DA), LoVo cells
- Assay type: cell-based
- Setup conditions: Homo sapiens, 4 h, compound 100 μM, with H2O2 (100 μM, 30 min), n = 5, read-out: ROS scavenging activity, Mean E/E0 ± SD, with H2O2
Hi! Could you send only the number? It should be in %, unit omitted.

// lookup activity at 100 µM for "Cc1cc(C)c(C(=O)NCc2nn(CC(=O)NN=Cc3ccc(C(F)(F)F)cc3)c(=S)o2)c(S)n1"
84

Look at this compound and give its reported activity at 100 µM. "Cc1cc(C)c(C(=O)NCc2nn(CC(=O)NN=Cc3cccc(Cl)c3)c(=S)o2)c(S)n1"
79

# input compound: "Cc1ccc(C=NNC(=O)Cn2nc(CNC(=O)c3c(C)cc(C)nc3S)oc2=S)cc1" ; wanted: its activity at 100 µM
95

Consider the compound "Cc1cc(C)c(C(=O)NCc2nn(CC(=O)NN=Cc3ccccc3)c(=S)o2)c(S)n1" and give its measured activity at 100 µM.
87

Could you tell me which activity at 100 µM is on file for "Cc1cc(C)c(C(=O)NCc2nn(CC(=O)NN=Cc3ccc(F)cc3)c(=S)o2)c(S)n1" ?
88

Item O=C1O[C@H]([C@@H](O)CO)C(O)=C1O [Ascorbic acid, ascorbic acid, reference compound] has what recorded activity at 100 µM?
32

# lookup: activity at 100 µM of "CSc1ccc(/C=N\NC(=O)Cn2nc(CNC(=O)c3c(C)cc(C)nc3S)oc2=S)cc1"
80

Would you mind telling me what activity at 100 µM value was observed for "Cc1cc(C)c(C(=O)NCc2nn(CC(=O)NN)c(=S)o2)c(S)n1" ?
83

For the compound "Cc1cc(C)c(C(=O)NCc2nn(CC(=O)NN=Cc3ccc(C#N)cc3)c(=S)o2)c(S)n1" , what activity at 100 µM is on record?
91

Item "Cc1cc(C)c(C(=O)NCc2nn(CC(=O)NN=Cc3ccc(Cl)cc3)c(=S)o2)c(S)n1" has what recorded activity at 100 µM?
91

I would be grateful if you could share the reported activity at 100 µM for Cc1cnc(NC(=O)C2=C(O)c3ccccc3S(=O)(=O)N2C)s1 [Meloxicam, meloxicam, reference compound] .
89

Which activity at 100 µM is reported for this compound? "Cc1cc(C)c(C(=O)NCc2nn(CC(=O)NN=Cc3ccccc3Br)c(=S)o2)c(S)n1"
69

Field request: activity at 100 µM | item: CN1C(C(=O)Nc2ccccn2)=C(O)c2ccccc2S1(=O)=O [Piroxicam, piroxicam, reference compound]
81

May I ask what activity at 100 µM has been recorded for Cc1c(C)c2c(c(C)c1O)CCC(C)(C(=O)O)O2 (centres unmarked) [Trolox, trolox, reference compound] ?
29

* * *

For each entry below, report its melting point value.

Would you mind telling me what melting point value was observed for "Cc1cc(C)c(C(=O)NCc2nn(CC(=O)NN)c(=S)o2)c(S)n1" ?
201 to 205 °C

I'd like to know its melting point. The molecule in question is "Cc1cc(C)c(C(=O)NCc2nn(CC(=O)NN=Cc3ccc(C#N)cc3)c(=S)o2)c(S)n1"
298 to 300 °C

Param item = "Cc1cc(C)c(C(=O)NCc2nn(CC(=O)NN=Cc3ccc(F)cc3)c(=S)o2)c(S)n1" ; retrieve measured melting point.
295 to 298 °C

Reported melting point for "CSc1ccc(/C=N\NC(=O)Cn2nc(CNC(=O)c3c(C)cc(C)nc3S)oc2=S)cc1" : what is it?
235 to 238 °C

Consider the molecule shown here: "Cc1cc(C)c(C(=O)NCc2nn(CC(=O)NN=Cc3cccc(Cl)c3)c(=S)o2)c(S)n1" What is its recorded melting point?
273 to 275 °C

Request the reported melting point associated with "Cc1cc(C)c(C(=O)NCc2nn(CC(=O)NN=Cc3ccccc3Br)c(=S)o2)c(S)n1"
285 to 288 °C

Given "Cc1cc(C)c(C(=O)NCc2nn(CC(=O)NN=Cc3ccc(C(F)(F)F)cc3)c(=S)o2)c(S)n1" , state its recorded melting point.
253 to 255 °C

melting point for "Cc1ccc(C=NNC(=O)Cn2nc(CNC(=O)c3c(C)cc(C)nc3S)oc2=S)cc1" ?
215 to 220 °C

For the molecule "Cc1cc(C)c(C(=O)NCc2nn(CC(=O)NN=Cc3ccccc3)c(=S)o2)c(S)n1" , what melting point is on record?
236 to 239 °C

Sample "Cc1cc(C)c(C(=O)NCc2nn(CC(=O)NN=Cc3ccc(Cl)cc3)c(=S)o2)c(S)n1" — what was its melting point?
278 to 280 °C

All figures here come from paper PMC8745710.
